Exercise: for every item that follows, state its recorded IC50.
Target Or System: CatG (Homo sapiens)
Sequence (P08311 21-244): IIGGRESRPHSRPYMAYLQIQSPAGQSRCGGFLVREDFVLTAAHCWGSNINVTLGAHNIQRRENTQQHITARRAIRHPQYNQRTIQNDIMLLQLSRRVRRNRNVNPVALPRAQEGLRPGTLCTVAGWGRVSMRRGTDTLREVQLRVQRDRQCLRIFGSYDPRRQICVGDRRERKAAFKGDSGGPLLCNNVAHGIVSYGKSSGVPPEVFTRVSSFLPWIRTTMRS
Procedure Details: Direct inhibition of human CatG, chromogenic substrate hydrolysis assay
Assay type: biochemical
Conditions Used: Table 6; read-out: CATG IC50

Consider Cc1ccc(C(=O)Nc2ccc(CP(=O)(O)O)cc2CP(=O)(O)O)cc1NC(=O)c1cccc(NC(=O)Nc2cccc(C(=O)Nc3cc(C(=O)Nc4ccc(CP(=O)(O)O)cc4CP(=O)(O)O)ccc3C)c2)c1 . Its measured IC50 is 3.1 µM

Consider O=C(Nc1cc(C(=O)Nc2ccc(S(=O)(=O)O)cc2)cc(C(=O)Nc2ccc(S(=O)(=O)O)cc2S(=O)(=O)O)c1)Nc1cc(C(=O)Nc2ccc(S(=O)(=O)O)cc2)cc(C(=O)Nc2ccc(S(=O)(=O)O)cc2S(=O)(=O)O)c1 . Its measured IC50 is 0.5 to 1 µM

Consider O=C(Nc1cc(C(=O)Nc2ccccc2S(=O)(=O)O)cc(C(=O)Nc2ccccc2S(=O)(=O)O)c1)Nc1cc(C(=O)Nc2ccccc2S(=O)(=O)O)cc(C(=O)Nc2ccccc2S(=O)(=O)O)c1 . Its measured IC50 is 1 to 5 µM

Consider O=C(Nc1cc(C(=O)Nc2cc(S(=O)(=O)O)ccc2S(=O)(=O)O)cc(C(=O)Nc2cc(S(=O)(=O)O)ccc2S(=O)(=O)O)c1)Nc1cc(C(=O)Nc2cc(S(=O)(=O)O)ccc2S(=O)(=O)O)cc(C(=O)Nc2cc(S(=O)(=O)O)ccc2S(=O)(=O)O)c1 . Its measured IC50 is 1 to 5 µM

Consider O=C(Nc1cc(C(=O)Nc2ccc(S(=O)(=O)O)cc2S(=O)(=O)O)cc(C(=O)Nc2ccc(S(=O)(=O)O)cc2S(=O)(=O)O)c1)Nc1cc(C(=O)Nc2ccc(S(=O)(=O)O)cc2S(=O)(=O)O)cc(C(=O)Nc2ccc(S(=O)(=O)O)cc2S(=O)(=O)O)c1 . Its measured IC50 is 0.09 µM

Consider O=C(Nc1cccc(C(=O)Nc2ccc(CP(=O)(O)O)cc2CP(=O)(O)O)c1)Nc1cccc(C(=O)Nc2ccc(CP(=O)(O)O)cc2CP(=O)(O)O)c1 . Its measured IC50 is 1 to 10 µM

Consider Cc1ccc(C(=O)Nc2ccc(CP(=O)(O)O)cc2)cc1NC(=O)c1cccc(NC(=O)Nc2cccc(C(=O)Nc3cc(C(=O)Nc4ccc(CP(=O)(O)O)cc4)ccc3C)c2)c1 . Its measured IC50 is 10 to 100 µM

Consider Cc1ccc(C(=O)Nc2ccc(CP(=O)(O)O)cc2CP(=O)(O)O)cc1NC(=O)Nc1cc(C(=O)Nc2ccc(CP(=O)(O)O)cc2CP(=O)(O)O)ccc1C . Its measured IC50 is 10 to 100 µM

Consider O=C(Nc1cccc(C(=O)Nc2cccc(C(=O)Nc3cccc(P(=O)(O)O)c3)c2)c1)Nc1cccc(C(=O)Nc2cccc(C(=O)Nc3cccc(P(=O)(O)O)c3)c2)c1 . Its measured IC50 is 1 to 10 µM

Consider O=C(Nc1cc(C(=O)Nc2ccc(S(=O)(=O)O)cc2)cc(C(=O)Nc2ccc(S(=O)(=O)O)cc2)c1)Nc1cc(C(=O)Nc2ccc(S(=O)(=O)O)cc2)cc(C(=O)Nc2ccc(S(=O)(=O)O)cc2)c1 . Its measured IC50 is 0.83 µM

These data points were gathered from patent US20250100963A1.
